Readings of IC50 for the listed molecules
biological target: UniProt:P48736; test: PI 3-Kinase (human) HTRF assay, p110γ; type: biochemical; settings: read-out: PI3K γ IC50
Sequence (P48736 whole entry): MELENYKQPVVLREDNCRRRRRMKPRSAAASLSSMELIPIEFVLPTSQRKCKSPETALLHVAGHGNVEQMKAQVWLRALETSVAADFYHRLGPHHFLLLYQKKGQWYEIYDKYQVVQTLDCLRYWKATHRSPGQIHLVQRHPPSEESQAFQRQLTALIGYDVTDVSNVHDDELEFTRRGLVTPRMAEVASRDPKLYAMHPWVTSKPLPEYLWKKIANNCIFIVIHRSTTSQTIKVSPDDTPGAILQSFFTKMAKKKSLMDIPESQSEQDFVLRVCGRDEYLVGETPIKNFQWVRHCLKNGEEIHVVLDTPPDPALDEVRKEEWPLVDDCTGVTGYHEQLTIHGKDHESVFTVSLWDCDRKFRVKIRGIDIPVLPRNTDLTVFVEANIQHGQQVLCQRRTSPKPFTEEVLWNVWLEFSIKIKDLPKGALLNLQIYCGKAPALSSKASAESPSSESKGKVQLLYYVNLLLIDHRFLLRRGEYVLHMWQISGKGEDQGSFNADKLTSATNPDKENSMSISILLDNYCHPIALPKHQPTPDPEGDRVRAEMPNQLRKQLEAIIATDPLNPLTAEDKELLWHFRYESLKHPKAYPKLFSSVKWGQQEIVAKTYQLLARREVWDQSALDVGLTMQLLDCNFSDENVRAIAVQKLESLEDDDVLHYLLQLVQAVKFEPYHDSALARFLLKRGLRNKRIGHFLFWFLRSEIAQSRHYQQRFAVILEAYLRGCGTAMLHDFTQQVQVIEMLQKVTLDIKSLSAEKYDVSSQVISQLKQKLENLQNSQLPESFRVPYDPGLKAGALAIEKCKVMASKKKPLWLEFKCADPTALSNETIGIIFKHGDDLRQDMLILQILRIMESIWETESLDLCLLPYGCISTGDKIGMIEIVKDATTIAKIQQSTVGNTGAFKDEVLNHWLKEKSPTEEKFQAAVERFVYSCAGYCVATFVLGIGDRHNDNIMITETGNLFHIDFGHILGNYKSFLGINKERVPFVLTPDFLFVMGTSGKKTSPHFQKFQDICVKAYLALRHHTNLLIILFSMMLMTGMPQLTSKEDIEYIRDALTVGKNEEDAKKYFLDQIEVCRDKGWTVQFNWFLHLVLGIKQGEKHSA
ENDPOINT: IC50

# MOLECULE, TESTED SYSTEM, MEAS VALUE
rows = [
    ("CN1CCN(c2ncnc3ccc(-c4ccc5oc(N)nc5c4)cc23)CC1 [compound 23]", "UniProt:P48736", "< 100 nM"),
    ("Nc1nc2cc(-c3ccc4nccn4c3)ccc2o1 [compound 40]", "UniProt:P48736", "< 10000 nM"),
    ("CN1CCN(c2cnc3ccc(-c4ccc5nc(N)oc5c4)cc3n2)CC1 [compound 118]", "UniProt:P48736", "< 10000 nM"),
    ("CN1CCC(N(C)c2ncnc3ccc(-c4ccc5oc(N)nc5c4)cc23)CC1 [compound 155]", "UniProt:P48736", "< 100 nM"),
    ("CN1CCN(c2cc(-c3cnc4ccc(-c5ccc6oc(N)nc6c5)cn34)ccn2)CC1 [compound 43]", "UniProt:P48736", "< 100 nM"),
    ("Nc1nc2cc(-c3ccc4ncnc(NC5CCN(C(=O)C6CC6)CC5)c4c3)ccc2o1 [compound 89]", "UniProt:P48736", "< 100 nM"),
    ("CN1CCCN(c2cnc3ccc(-c4ccc5oc(N)nc5c4)cc3n2)CC1 [compound 136]", "UniProt:P48736", "< 10000 nM"),
    ("Nc1nc2cc(-c3cc4nccc(-c5ccncc5)c4s3)ccc2o1 [compound 14]", "UniProt:P48736", "< 10000 nM"),
    ("Cc1nc2ccc(-c3ccc4oc(N)nc4c3)nn2c1-c1ccncc1 [compound 56]", "UniProt:P48736", "< 100 nM"),
    ("Nc1nc2cc(-c3ccc4ncc(N5CCN(CC6CC6)CC5)nc4c3)ccc2o1 [compound 153]", "UniProt:P48736", "< 1000 nM"),
    ("CN1CC(C(=O)N2CCN(c3cnc4ccc(-c5ccc6oc(N)nc6c5)cc4n3)CC2)C1 [compound 156]", "UniProt:P48736", "< 1000 nM"),
    ("CNC(=O)N1CCN(c2cnc3ccc(-c4ccc5oc(N)nc5c4)cc3n2)CC1 [compound 154]", "UniProt:P48736", "< 100 nM"),
    ("CC(=O)N1CCC(Nc2cnc3ccc(-c4ccc5oc(N)nc5c4)cc3n2)CC1 [compound 82]", "UniProt:P48736", "< 100 nM"),
    ("Nc1nc2cc(-c3ccc4ncc(N5CCN(C(=O)[C@@H]6CCCN6)CC5)nc4c3)ccc2o1 [compound 121]", "UniProt:P48736", "< 100 nM"),
    ("Nc1nc2cc(-c3ccc4ncc(-c5ccc6nc(N)oc6c5)n4c3)ccc2o1 [compound 50]", "UniProt:P48736", "< 100 nM"),
    ("Nc1nc2cc(-c3ccc4ncc(N5CCCC5)nc4c3)ccc2o1 [compound 176]", "UniProt:P48736", "< 100 nM"),
    ("Nc1ccc2cc(-c3ccc4nccc(-c5ccncc5)c4c3)ccc2n1 [compound 5]", "UniProt:P48736", "< 1000 nM"),
    ("Nc1noc2cc(-c3ccc4nccc(-c5ccncc5)c4c3)ccc12 [compound 16]", "UniProt:P48736", "< 1000 nM"),
]

Data provenance is patent US11547697B2.
